Values compiled from patent US20180118829A1.

measured target: T1, Mouse PD-1 (monovalent antigen) (mouse, UniProt Q02242 25-167, limits assumed)
T1 sequence (looked up): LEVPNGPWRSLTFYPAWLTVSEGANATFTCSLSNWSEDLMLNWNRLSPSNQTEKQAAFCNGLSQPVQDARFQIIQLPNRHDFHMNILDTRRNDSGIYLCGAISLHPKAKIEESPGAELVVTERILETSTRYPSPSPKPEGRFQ
assay summary: ForteBio BLI, IgG on AHQ sensor, monovalent antigen in solution
pKd: −log10 of the molar value.
Let's look at some binders and their measured pKd.
readout name: pKd

1. antibody 13408 (antibody, V domains shown) VH: QVQLVQSGAEVKKPGASVKVSCKASGYTFSDYYMHWVRQAPGQGLEWMGIINPSGGVTAYAQKFQGRVTMTRDTSTSTVYMELSSLRSEDTAVYYCARGGTYYDYTYWGQGTLVTVSS VL: DIQMTQSPSTLSASVGDRVTITCRASQSISSWLAWYQQKPGKAPKLLIYEASSLESGVPSRFSGSGSGTEFTLTISSLQPDDFATYYCQQYNSFPPTFGGGTKVEIK :: 8.28
2. antibody 13407 (antibody, V domains shown) VH: QVQLVQSGAEVKKPGASVKVSCKASGYTFPSYYMHWVRQAPGQGLEWMGIINPEGGSTAYAQKFQGRVTMTRDTSTSTVYMELSSLRSEDTAVYYCARGGTYYDYTYWGQGTLVTVSS VL: DIQMTQSPSTLSASVGDRVTITCRASQSISSWLAWYQQKPGKAPKLLIYEASSLESGVPSRFSGSGSGTEFTLTISSLQPDDFATYYCQQYNSFPPTFGGGTKVEIK :: 8.49
3. antibody 12228 (antibody, V domains shown) VH: QVQLVQSGAEVKKPGASVKVSCKASGYTFTSYYMHWVRQAPGQGLEWMGIINPSGGSTSYAQKFQGRVTMTRDTSTSTVYMELSSLRSEDTAVYYCARGGTYYDYTYWGQGTLVTVSS VL: DIQMTQSPSTLSASVGDRVTITCRASQSISSWLAWYQQKPGKAPKLLIYEASSLESGVPSRFSGSGSGTEFTLTISSLQPDDFATYYCQQYNSFPPTFGGGTKVEIK :: 8.20
4. antibody 13406 (antibody, V domains shown) VH: QVQLVQSGAEVKKPGASVKVSCKASGYTFDQYYMHWVRQAPGQGLEWMGIINPSGGSTAYAQKFQGRVTMTRDTSTSTVYMELSSLRSEDTAVYYCARGGTYYDYTYWGQGTLVTVSS VL: DIQMTQSPSTLSASVGDRVTITCRASQSISSWLAWYQQKPGKAPKLLIYEASSLESGVPSRFSGSGSGTEFTLTISSLQPDDFATYYCQQYNSFPPTFGGGTKVEIK :: 8.46
